Values compiled from PubChem BioAssay AID588358.

System name: Desmoglein-3 (Homo sapiens)
Assay details: blockers of anti-DSG3 scFv binding – biochemical, bead-based, flow cytometry, scFv-GFP, primary screen (AID 588358);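 also: hits lower antibody fragment binding to DSG3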
Condition set: DSG3-coupled beads, at 10 µM, stronger effect = lower value
Out of some 310,000 compounds screened, about 1,500 (0.48%) were called active. Shown is part of a subset that was picked to be rich in actives.

| Compound | System name | binding (percent of control) (%) |
| --- | --- | --- |
| O=C1CCC(C(=O)N2CCCCO2)CN1Cc1cccc(C(F)(F)F)c1 (stereo unspecified) | Desmoglein-3 (Homo sapiens) | 90.7 |
| COC(=O)[C@H]1C[C@H](OC(=O)NCc2ccccc2)[C@@]2(O)CN(S(=O)(=O)c3ccc(C)cc3)CC2[C@H]1C(=O)OC (stereo partly specified) | Desmoglein-3 (Homo sapiens) | 110 |
| COCOCCn1cc(CN2CCS(=O)(=O)N(Cc3ccc(-c4ccc(OC)cc4)cc3)C(CC(C)C)C2=O)nn1 (stereo unspecified) | Desmoglein-3 (Homo sapiens) | 103 |
| COC(=O)c1sccc1NC(=O)c1cc(OC)c(OC)c(OC)c1 | Desmoglein-3 (Homo sapiens) | 81.8 |
| O=Nc1c(O)cc(O)c2ccccc12 | Desmoglein-3 (Homo sapiens) | 104 |
| CC1(C2CC2)NC(=O)N(CC(=O)N2CCN(c3ccccc3F)CC2)C1=O (stereo unspecified) | Desmoglein-3 (Homo sapiens) | 101 |
